Give IC50 for every item shown.
assayedTarget: human proliferating cell nuclear antigen (PCNA), no tag (human, UniProt P12004 1-261)
Sequence (P12004 whole entry): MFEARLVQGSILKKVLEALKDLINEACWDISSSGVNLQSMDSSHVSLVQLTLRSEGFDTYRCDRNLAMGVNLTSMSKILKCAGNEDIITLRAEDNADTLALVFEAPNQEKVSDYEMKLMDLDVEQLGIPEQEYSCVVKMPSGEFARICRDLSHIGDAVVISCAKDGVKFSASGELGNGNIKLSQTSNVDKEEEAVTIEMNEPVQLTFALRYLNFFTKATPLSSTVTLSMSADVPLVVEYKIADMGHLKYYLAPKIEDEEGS
method: fluorescence polarisation
Quick reminder: number only, in nM, skip the unit.

Look up IC50 of trivalent p21 peptide (peptide) KRRQTSMTDFYHSKRRLIFSGGSGGSGGSGGSGGSGGSKRRQTSMTDFYHSKRRLIFSGGSGGSGGSGGSGGSGGSKRRQTSMTDFYHSKRRLIFS and report it.
600

Look up IC50 of divalent p21 peptide (peptide) KRRQTSMTDFYHSKRRLIFSGGSGGSGGSGGSGGSGGSKRRQTSMTDFYHSKRRLIFS and report it.
1000
